Tested on: HEK293 cells
methodNotes: Preliminary screening as mRNA vectors, EGFP mRNA transfection of HEK293 cells
Assay type: cell-based
setupConditions: HEK293 cells, 96-well plates, EGFP mRNA 50 ng per well; percentage of GFP fluorescent cells relative to total number of cells (Hoechst)
We'd kindly ask you to apply these Absolute mRNA transfection efficiency in HEK293 cells classes: A (below 0.1%), B (0.1% to below 3%), C (3% or more)

1. CCCCCCCCCCCCCNc1nc(NCCCCCCCC)nc(NCCN(CC)CC)n1 | A
2. CCCCCCCCCCCCCCCCNc1nc(NCCCCCCCCCCCCCCCC)nc(NCCN(CC)CC)n1 | C
3. CCCCCCCCCCCSc1nc(NCCN2CCCC2)nc(SCCCCCCCCCC)n1 | C
4. CCCCCCCCCCCCCCCNc1nc(NCCCCCCC)nc(NCCN(CC)CC)n1 | A
5. CCCCCCCCCCCCCCCCNc1nc(NCCCN(C)C)nc(N(CCCCCCCCCCCC)CCCCCCCCCCCC)n1 | A
6. CCCCCCCCCCCNc1nc(NCCCCCCCCCCC)nc(NCCN(CC)CC)n1 | C
7. CCCCCCCCCCCCSc1nc(NCCN2CCCC2)nc(SCCCCCCCCC)n1 | C
8. CCCCCCCCCCCCCCCCSc1nc(NCCN2CCCCC2)nc(SCCCCCCCCCCCCCCCC)n1 | B
9. CCCCCCCCNc1nc(NCCCCCCC)nc(NCCN2CCOCC2)n1 | B
10. CCCCCCCCCCCCCCCNc1nc(NCCCCCCCCCCC)nc(NCCN2CCCCC2)n1 | B
11. CCCCCCCCCCCCNc1nc(NCCCCCCCCCCCC)nc(NCCN2CCN(C)CC2)n1 | B
12. CCCCCCCCCCCCCCCCNc1nc(NCCCCCCC)nc(NCCN(C)C)n1 | B
13. CCCCCCCCCCCSc1nc(NCCN(CC)CC)nc(SCCCCCCCCCCC)n1 | A
14. CCCCCCCCCCCCCCSc1nc(NCCCN2CCN(C)CC2)nc(SCCCCCCCCCCC)n1 | C
15. CCCCCCCCCCCCNc1nc(NCCCCCC)nc(NCC2CCN(C)CC2)n1 | A
16. CCCCCCCCCCCSc1nc(NCCN2CCOCC2)nc(SCCCCCCCCC)n1 | C
17. CCCCCCCCCCCCCCCSc1nc(NCCCN(C)C)nc(SCCCCCCCCCCC)n1 | C
18. CCCCCCCCCCCCCCCNc1nc(NCCCCCC)nc(NCCCN2CCOCC2)n1 | A
19. CCCCCCCCCCCCCCCCCCNc1nc(NCCCCCC)nc(NCCN(C)C)n1 | C
20. CCCCCCCCCCCCCCCCCCSc1nc(NCCN2CCCCC2)nc(SCCCCCCCCC)n1 | B
21. CCCCCCCCCCCCNc1nc(NCCCCCCCCCCC)nc(NCCN(CC)CC)n1 | B

====

System: HEK293 cells
methodNotes: Preliminary screening as mRNA vectors, EGFP mRNA transfection of HEK293 cells
Assay type: cell-based
setupConditions: HEK293 cells, 96-well plates, EGFP mRNA 50 ng per well; percentage of GFP fluorescent cells relative to total number of cells (Hoechst)
attributeMeasured: Absolute mRNA transfection efficiency in HEK293 cells (%)

1. CCCCCCCCCCCCCNc1nc(NCCCCCCCCCCCCC)nc(NCC2CCN(C)CC2)n1 | 2.9
2. CCCCCCCCCCCCCCCCCCNc1nc(NCCCCCCCCCCCC)nc(NCCCN(C)C)n1 | 4.8
3. CCCCCCCCNc1nc(NCCCCCCCC)nc(NCCCN(C)C)n1 | 0.0
4. CCCCCCCCCCCCCCCCNc1nc(NCCCCCCC)nc(NCCN2CCN(C)CC2)n1 | 0.0
5. CCCCCCCCCCCCCCCSc1nc(NCCN2CCOCC2)nc(SCCCCCCCCCCCC)n1 | 0.0

====

Tested on: HEK293 cells
methodNotes: Preliminary screening as mRNA vectors, EGFP mRNA transfection of HEK293 cells
Format: cell-based
setupConditions: HEK293 cells, 96-well plates, EGFP mRNA 50 ng per well; percentage of GFP fluorescent cells relative to total number of cells (Hoechst)
attributeMeasured: Absolute mRNA transfection efficiency in HEK293 cells

1. CCCCCCCCCCCCCCCSc1nc(NCC2CCN(C)CC2)nc(SCCCCCCCCCCCCCC)n1 | 0.5%
2. CCCCCCCCCCCCCCCCSc1nc(NCCN(C)C)nc(SCCCCCCCCCCC)n1 | 2.4%
3. CCCCCCCCCCCCCCSc1nc(NCCN(CC)CC)nc(SCCCCCCCCC)n1 | 1.5%
4. CCCCCCCCCCCCCCCCCCNc1nc(NCCCCCCCCCCCCCCCCCC)nc(NCCN2CCCCC2)n1 | 0.0%

====

Tested on: HEK293 cells
methodNotes: Preliminary screening as mRNA vectors, EGFP mRNA transfection of HEK293 cells
Type: cell-based
setupConditions: HEK293 cells, 96-well plates, EGFP mRNA 50 ng per well; percentage of GFP fluorescent cells relative to total number of cells (Hoechst)
attributeMeasured: Absolute mRNA transfection efficiency in HEK293 cells (%)

1. CCCCCCCCCCCCCCCCCCSc1nc(NCCN2CCCCC2)nc(SCCCCCCCCCCCCCCC)n1 | 0.0
2. CCCCCCCCCCCCCCCNc1nc(NCCCCCCC)nc(NCCCN2CCOCC2)n1 | 0.2
3. CCCCCCCCCCCCCCCCCCSc1nc(NCCCN(C)C)nc(SCCCCCCCCCCCCCCC)n1 | 0.0
4. CCCCCCCCCCCNc1nc(NCCCCCCCCCCC)nc(NCCN2CCCC2)n1 | 1.4
5. CCCCCCCCCCCCCCCCSc1nc(NCCCN2CCN(C)CC2)nc(SCCCCCCCCCCCCCC)n1 | 0.0

====

System: HEK293 cells
methodNotes: Preliminary screening as mRNA vectors, EGFP mRNA transfection of HEK293 cells
Assay type: cell-based
setupConditions: EGFP mRNA 50 ng per well, 96-well plates; percentage of GFP fluorescent cells relative to total number of cells (Hoechst)
We'd kindly ask you to apply these Absolute mRNA transfection efficiency in HEK293 cells classes: interval 1 (below 2%), interval 2 (2% to below 6%), interval 3 (6% or more)

1. CCCCCCCCCCSc1nc(NCCCCCCCC)nc(NCCCN2CCN(C)CC2)n1 | interval 2
2. CCCCCCCCCCCCCCSc1nc(NCCCCCC)nc(NCCN2CCCCC2)n1 | interval 2
3. CCCCCCCCCCCCN(CCCCCCCCCCCC)c1nc(NCCN2CCN(C)CC2)nc(SCCCCCCC)n1 | interval 1
4. CCCCCCCCCCCCCCCSc1nc(NCCCCCCCCCCCCC)nc(NCCN2CCN(C)CC2)n1 | interval 1
5. CCCCCCCCCCCCCCCSc1nc(NCCCCCCCCCCCC)nc(NCCCN2CCN(C)CC2)n1 | interval 2
6. CCCCCCCCCCCCCCCCNc1nc(NCCN(CC)CC)nc(SCCCCCCCCCCCCCCC)n1 | interval 1
7. CCCCCCCCCCSc1nc(NCCCCCCCC)nc(NCCN2CCCC2)n1 | interval 1
8. CCCCCCCCCCCCCCCCCCSc1nc(NCCCCCC)nc(NCCN2CCCCC2)n1 | interval 1
9. CCCCCCCCCCCNc1nc(NCC2CCN(C)CC2)nc(SCCCCCCCC)n1 | interval 3
10. CCCCCCCCCCCCCCCCSc1nc(NCCCCCCCCCCC)nc(NCCN2CCCCC2)n1 | interval 1
11. CCCCCCCCCCCCCCCCCCNc1nc(NCCN(C)C)nc(SCCCCCC)n1 | interval 3
12. CCCCCCCCCCCCCCCCNc1nc(NCCCN2CCN(C)CC2)nc(SCCCCCCCCC)n1 | interval 3
13. CCCCCCCCCCCCCCCCCCNc1nc(NCCN2CCCCC2)nc(SCCCCCCCCCCCCCCCC)n1 | interval 3
14. CCCCCCCCCCCCCCCNc1nc(NCCN2CCCC2)nc(SCCCCCCCCCCCCCC)n1 | interval 2
15. CCCCCCCCCCCCCCCSc1nc(NCCCCCCCCCCCCC)nc(NCCN2CCOCC2)n1 | interval 1
16. CCCCCCCCNc1nc(NCCN(CC)CC)nc(SCCCCCCCC)n1 | interval 2
17. CCCCCCCCCCCCCCCCNc1nc(NCCN2CCCCC2)nc(SCCCCCCC)n1 | interval 1
18. CCCCCCCCCCSc1nc(NCCN2CCN(C)CC2)nc(SCCCCCC)n1 | interval 3
19. CCCCCCCCCCCCCCSc1nc(NCCCCCCCCCCC)nc(NCC2CCN(C)CC2)n1 | interval 3
20. CCCCCCCCCCCCCCCCSc1nc(NCCN(CC)CC)nc(SCCCCCC)n1 | interval 2
21. CCCCCCCCCCCCCCCCSc1nc(NCCCN(C)C)nc(SCCCCCCC)n1 | interval 3
22. CCCCCCCCCCCCSc1nc(NCCN2CCCC2)nc(N(CCCCCCCCCCCC)CCCCCCCCCCCC)n1 | interval 2
23. CCCCCCCCCCCSc1nc(NCC2CCN(C)CC2)nc(SCCCCCCCC)n1 | interval 3
